- tested on: T1, purified human glycophorin A protein (Sigma, cat # G5017) (human, UniProt P02724 20-150)
- T1 construct: mature; also called Sigma hGPA; Sigma GPA
- T1 sequence (looked up): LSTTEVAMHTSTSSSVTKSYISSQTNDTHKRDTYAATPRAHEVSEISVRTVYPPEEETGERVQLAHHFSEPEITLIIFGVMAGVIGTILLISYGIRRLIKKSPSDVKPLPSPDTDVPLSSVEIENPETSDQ
- test description: ELISA, native hGPA
Known binding by ELISA relative to parental of a selection of binders
experimental readout: binding by ELISA relative to parental

>>> data_value("TPP-5352 (Fab, V domains shown, also called VL: (H88Q)) VH: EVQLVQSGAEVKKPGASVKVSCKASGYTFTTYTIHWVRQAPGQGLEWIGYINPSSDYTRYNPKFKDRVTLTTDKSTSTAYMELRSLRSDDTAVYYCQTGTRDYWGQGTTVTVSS VL: DIQLTQSPSFLSASVGDRVTITCSAASSVSYIYWFQQKPGKAPKLLIYSTSTLPSGVPSRFSGSGSGTEYTLTISSLQPEDFATYYCQQRNSFPFTFGQGTKLEIKR")
0.36
>>> data_value("TPP-5350 (Fab, V domains shown, also called VL: (P54Q)) VH: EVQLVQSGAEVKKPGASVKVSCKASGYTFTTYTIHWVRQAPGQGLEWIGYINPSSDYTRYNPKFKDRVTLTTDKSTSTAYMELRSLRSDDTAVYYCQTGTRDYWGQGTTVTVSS VL: DIQLTQSPSFLSASVGDRVTITCSAASSVSYIYWFQQKPGKAPKLLIYSTSTLQSGVPSRFSGSGSGTEYTLTISSLQPEDFATYYCHQRNSFPFTFGQGTKLEIKR")
1.45
>>> data_value("TPP-5327 (Fab, V domains shown, also called VH: (P62Q)) VH: EVQLVQSGAEVKKPGASVKVSCKASGYTFTTYTIHWVRQAPGQGLEWIGYINPSSDYTRYNQKFKDRVTLTTDKSTSTAYMELRSLRSDDTAVYYCQTGTRDYWGQGTTVTVSS VL: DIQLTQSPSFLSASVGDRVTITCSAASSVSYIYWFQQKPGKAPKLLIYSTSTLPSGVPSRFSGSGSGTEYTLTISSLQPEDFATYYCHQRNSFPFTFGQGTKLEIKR")
0.98
